# key: entry, value: pIC50
Biological target: Syk catalytic domain (aa 356-635 with a C-terminal His-tag) (Homo sapiens, UniProt P43405)
Construct: His-tag (C); made in house
Experiment: In vitro Syk kinase activity measured by trFRET, Syk catalytic domain
Assay type: biochemical
Description: In Vitro Syk Kinase Activity Measured by Time-Resolved Fluorescence Resonance Energy Transfer (trFRET) 0.14 nM purified Syk catalytic domain (aa 356-635 with a C-terminal His-tag purified in-house by immobilized metal ion affinity chromatography) was mixed with 0.2 μM peptide substrate (biotin-TYR1, Sequence: Biotin-(Ahx)-GAEEEIYAAFFA-COOH) at varying inhibitor concentrations in reaction buffer: 50 mM MOPSO pH 6.5, 10 mM MgCl2, 2 mM MnCl2, 2.5 mM DTT, 0.01% BSA, 0.1 mM Na3VO4 and 0.001 mM ATP. […]
pIC50: −log10 of the molar value.

>>> result_value("CC(=O)NCCc1ccc(-c2nc(C3CCCCC3)n3c2cnc2[nH]ccc23)cc1")
"6.00 to 7.00"

// returns reported pIC50 for input `CN1CCN(Cc2ccc(-c3nc(C4CCCCC4)n4c3cnc3[nH]ccc34)cc2)CC1`
6.00 to 7.00

Item `CC(=O)Nc1ccc(-c2nc(C3CCCCC3)n3c2cnc2[nH]ccc23)cc1` has what recorded pIC50?
6.00 to 7.00

Returns the measured pIC50 for the input compound. Input: `Cc1nc(-c2ccc(CN3CCOCC3)cc2)c2cnc3[nH]ccc3n12`
6.00 to 7.00

// lookup pIC50 for `CN(C)CCNC(=O)c1ccc(-c2nc(C3CCCCC3)n3c2cnc2[nH]ccc23)cc1`
6.00 to 7.00

Which pIC50 is reported for this compound? `COc1ccc(-c2nc(C)n3c2cnc2[nH]ccc23)c(CO)c1`
5.00 to 6.00

What does the data say about its pIC50? Entry: `COc1ncc(-c2nc(C)n3c2cnc2[nH]ccc23)cn1`
5.00 to 6.00

Given the compound `COc1ccc(-c2nc(C)n3c2cnc2[nH]ccc23)cn1` , what is its reported pIC50?
6.00 to 7.00

Return reported pIC50; argument: `COc1ccc(-c2nc(C)n3c2cnc2[nH]ccc23)cc1C`
6.00 to 7.00

Entry `Cc1cnc2cnc3[nH]c(-c4ccc(C(C)(C)O)cc4)cc3n12` has what pIC50?
6.00 to 7.00

I am curious: what pIC50 value has been reported for `Cc1cc(-c2nc(C)n3c2cnc2[nH]ccc23)ccc1N1CCOCC1` ?
> 7.00

Value lookup for pIC50; key = `COc1cc2c(-c3cc4c(ncc5cnn(C)c54)[nH]3)cn(C)c2cn1`
> 7.00

So what's the measured pIC50 for this one? `Cc1nc(-c2ccc(C(C)(C)O)nc2)c2cnc3[nH]ccc3n12`
6.00 to 7.00

Requested field: pIC50. Item: `Cc1nc(-c2ccc(S(=O)(=O)NC3CC3)cc2)c2cnc3[nH]ccc3n12`
6.00 to 7.00

For the compound shown here, `Cn1nc(-c2ccc(C(C)(C)O)cc2)c2cnc3[nH]ccc3c21` , give the reported pIC50.
> 7.00

Record request: pIC50 value, item `Cc1nc(-c2ccc(S(C)(=O)=O)cc2)c2cnc3[nH]ccc3n12`
6.00 to 7.00

Record request: pIC50 value, item `COc1ccc(-c2nc([C@@H]3CC[C@H](N)C3)n3c2cnc2[nH]ccc23)cc1`
6.00 to 7.00

Please report the recorded pIC50 for `Cc1nc(-c2ccc3c(c2)CCO3)c2cnc3[nH]ccc3n12` .
6.00 to 7.00

Record request: pIC50 value, item `Cc1nc(-c2ccc(S(=O)(=O)N(C)C)cc2)c2cnc3[nH]ccc3n12`
6.00 to 7.00

The origin of these recorded values is patent US20140349970A1.
